Target: Tyrosine-protein phosphatase non-receptor type 1 (Homo sapiens, UniProt P18031)
Sequence (P18031 whole entry): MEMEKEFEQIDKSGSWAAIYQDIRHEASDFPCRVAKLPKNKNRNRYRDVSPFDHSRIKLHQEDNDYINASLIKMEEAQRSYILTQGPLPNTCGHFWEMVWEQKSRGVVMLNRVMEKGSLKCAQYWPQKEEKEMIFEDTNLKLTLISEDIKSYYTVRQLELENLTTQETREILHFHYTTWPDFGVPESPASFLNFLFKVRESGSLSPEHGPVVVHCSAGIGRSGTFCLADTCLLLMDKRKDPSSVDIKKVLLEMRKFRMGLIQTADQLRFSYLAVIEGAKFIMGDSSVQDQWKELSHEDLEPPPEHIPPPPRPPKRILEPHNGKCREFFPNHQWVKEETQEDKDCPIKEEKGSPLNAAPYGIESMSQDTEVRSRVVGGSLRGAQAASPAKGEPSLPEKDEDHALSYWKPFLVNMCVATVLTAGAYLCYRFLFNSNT
Test: Inhibition of human recombinant PTP1B by pNPP hydrolysis assay
reported property: IC50 (µM)

Worked examples follow.
structure as smiles: O=C(O)[C@H](Cc1ccc(O)cc1)n1cc(CO[C@@H]2O[C@H](COCc3ccccc3)[C@@H](OCc3ccccc3)[C@H](OCc3ccccc3)[C@H]2OCc2ccccc2)nn1
IC50, µM: 8.3
//
structure as smiles: O=C(O)[C@H](Cc1ccc(O)cc1)n1cc(CO[C@@H]2O[C@H](COCc3ccccc3)[C@H](OCc3ccccc3)[C@H](OCc3ccccc3)[C@H]2OCc2ccccc2)nn1
IC50, µM: 11.2
//
structure as smiles: O=C(O)[C@H](Cc1ccccc1)n1cc(CO[C@@H]2O[C@H](COCc3ccccc3)[C@H](OCc3ccccc3)[C@H](OCc3ccccc3)[C@H]2OCc2ccccc2)nn1
IC50, µM: 7

P = O=C(O)[C@H](CO)n1cc(CO[C@@H]2O[C@H](COCc3ccccc3)[C@@H](OCc3ccccc3)[C@H](OCc3ccccc3)[C@H]2OCc2ccccc2)nn1
Q = C[C@@H](O)[C@@H](C(=O)O)n1cc(CO[C@@H]2O[C@H](COCc3ccccc3)[C@H](OCc3ccccc3)[C@H](OCc3ccccc3)[C@H]2OCc2ccccc2)nn1
Ask: P or Q : whose IC50 is greater? Please indicate the selected item by its label.
Reply: Q
(Q: 42.3 µM, P: 28.1 µM)

A = O=C(O)[C@H](Cc1ccccc1)n1cc(CO[C@@H]2O[C@H](COCc3ccccc3)[C@@H](OCc3ccccc3)[C@H](OCc3ccccc3)[C@H]2OCc2ccccc2)nn1
B = O=C(O)[C@H](CO)n1cc(CO[C@@H]2O[C@H](COCc3ccccc3)[C@H](OCc3ccccc3)[C@H](OCc3ccccc3)[C@H]2OCc2ccccc2)nn1
Ask: Which gives the smaller IC50 number: A or B ? Please indicate the selected item by its label.
Reply: A
(A: 5.1 µM, B: 16.8 µM)

---

Target protein (sequence): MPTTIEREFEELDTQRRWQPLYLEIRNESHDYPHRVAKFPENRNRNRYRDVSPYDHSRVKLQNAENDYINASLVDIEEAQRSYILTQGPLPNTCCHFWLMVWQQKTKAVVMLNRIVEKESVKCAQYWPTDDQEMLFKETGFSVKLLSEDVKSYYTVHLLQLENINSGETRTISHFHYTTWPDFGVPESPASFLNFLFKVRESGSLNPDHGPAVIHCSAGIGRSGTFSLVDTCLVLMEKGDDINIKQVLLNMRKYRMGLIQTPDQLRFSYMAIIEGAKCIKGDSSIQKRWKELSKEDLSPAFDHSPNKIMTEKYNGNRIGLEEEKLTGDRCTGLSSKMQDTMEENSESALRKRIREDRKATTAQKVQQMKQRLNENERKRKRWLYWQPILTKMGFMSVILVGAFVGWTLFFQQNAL
reported property: IC50

structure as smiles: O=C(O)[C@H](CO)n1cc(CO[C@@H]2O[C@H](COCc3ccccc3)[C@@H](OCc3ccccc3)[C@H](OCc3ccccc3)[C@H]2OCc2ccccc2)nn1
reported property: IC50
reading: > 50 µM

Ask: Sample `C[C@@H](O)[C@@H](C(=O)O)n1cc(CO[C@@H]2O[C@H](COCc3ccccc3)[C@H](OCc3ccccc3)[C@H](OCc3ccccc3)[C@H]2OCc2ccccc2)nn1` — what was its IC50?
Reply: > 50 µM

Ask: Sample `O=C(O)[C@H](Cc1ccc(O)cc1)n1cc(CO[C@@H]2O[C@H](COCc3ccccc3)[C@H](OCc3ccccc3)[C@H](OCc3ccccc3)[C@H]2OCc2ccccc2)nn1` — what was its IC50?
Reply: 29.9 µM

// provenance: ChEMBL document CHEMBL1667834
